I'd be grateful if you could share measured Inhibition of binding (%) for these entries.
STUDY_SYSTEM: T1, hCMV gB (expressed in HEK293T cells) (human cytomegalovirus, UniProt P06473 32-906)
T1 construct: whole, on cells; also called envelope glycoprotein B; UL55
T1 sequence (P06473 32-906 limits assumed): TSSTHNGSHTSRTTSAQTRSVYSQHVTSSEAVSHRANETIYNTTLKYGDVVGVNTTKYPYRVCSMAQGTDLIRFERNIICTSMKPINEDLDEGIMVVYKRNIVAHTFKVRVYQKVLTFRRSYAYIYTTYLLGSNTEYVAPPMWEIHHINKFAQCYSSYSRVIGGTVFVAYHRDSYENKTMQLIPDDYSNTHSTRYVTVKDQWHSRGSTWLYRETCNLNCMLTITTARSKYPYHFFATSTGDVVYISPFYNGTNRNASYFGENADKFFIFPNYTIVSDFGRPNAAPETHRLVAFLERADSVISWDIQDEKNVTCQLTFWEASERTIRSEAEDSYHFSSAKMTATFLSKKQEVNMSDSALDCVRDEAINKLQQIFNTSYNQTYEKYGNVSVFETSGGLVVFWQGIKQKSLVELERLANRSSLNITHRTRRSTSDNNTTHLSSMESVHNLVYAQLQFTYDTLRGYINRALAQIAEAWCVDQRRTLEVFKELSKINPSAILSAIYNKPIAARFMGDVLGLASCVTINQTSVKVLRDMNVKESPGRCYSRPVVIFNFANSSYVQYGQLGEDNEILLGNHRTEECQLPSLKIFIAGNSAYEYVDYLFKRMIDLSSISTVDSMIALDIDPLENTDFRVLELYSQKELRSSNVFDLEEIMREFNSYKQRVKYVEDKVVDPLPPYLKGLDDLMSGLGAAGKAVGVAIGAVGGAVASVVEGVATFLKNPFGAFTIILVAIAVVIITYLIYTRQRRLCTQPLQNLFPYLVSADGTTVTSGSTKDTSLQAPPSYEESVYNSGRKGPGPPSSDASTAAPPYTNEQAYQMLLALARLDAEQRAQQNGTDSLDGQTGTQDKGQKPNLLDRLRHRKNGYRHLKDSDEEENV
RUN_DESCRIPTION: competitor: 10C6-biotin; cell staining
Give bare numbers, in %.

Take each entry in turn and give its Inhibition of binding (%).
1. 2B11 (antibody, V domains shown, human IgG; also called 2B11-biotin) VH: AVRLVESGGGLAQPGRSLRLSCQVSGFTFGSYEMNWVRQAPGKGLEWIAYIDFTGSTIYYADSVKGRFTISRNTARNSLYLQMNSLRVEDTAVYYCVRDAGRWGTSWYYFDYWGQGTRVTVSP VL: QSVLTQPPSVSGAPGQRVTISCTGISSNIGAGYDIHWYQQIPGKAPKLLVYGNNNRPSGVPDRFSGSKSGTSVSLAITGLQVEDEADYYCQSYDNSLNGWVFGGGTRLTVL
2. 4H9 (antibody, V domains shown, human IgG; also called 4H9-biotin) VH: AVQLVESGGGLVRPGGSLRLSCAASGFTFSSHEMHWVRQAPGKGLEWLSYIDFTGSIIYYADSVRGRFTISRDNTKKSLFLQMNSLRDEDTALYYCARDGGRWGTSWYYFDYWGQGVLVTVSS VL: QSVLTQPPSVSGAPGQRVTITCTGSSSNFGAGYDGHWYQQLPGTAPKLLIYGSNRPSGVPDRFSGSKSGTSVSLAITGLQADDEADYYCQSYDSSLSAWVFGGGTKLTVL

**A:**
100
100
